Biological target: Biotinylated CoV2 Spike ECD PreS-AVI protein (SARS-CoV-2, UniProt P0DTC2 14-1208)
Assay: Octet binning; competitor 15H1
MEASURE: binning response
Response field accepts a number only; no unit should be typed.

In the examples that follow, each entry is paired with its recorded binning response.
10B8 VHH-Fc (Fc fusion) QVQLVESGGGLVQPGGSLRLSCAASGITLDYYAIAWFRQAPGKEREGVSCFCSSDGDIRYADSVKGRFTISRDNAKNTVYLQMNSLKPEDTAVYYCATERVYSSTWFFHRYSELDFGSWGRGTQVTVSS
0.12
13C8 VHH-Fc (Fc fusion) QVQLVESGGGLVQAGGSLRLSCAASGRTVNKYMTGWFRQTPGKEREFVASIDWSSTTTHYANSVKGRFTISRDKVKNTVYLQMNGLKPEDTAVYYCAAHQDSSYGYTILPIDYDSWGQGTQVTVSS
0.11
19C10 VHH-Fc (Fc fusion) QVQLVESGGGLVQPGGSLRLSCAASGFTLDLNSIGWFRQAPGKEREGVSCISPSASSTHYADSVKGRFTISRDNAKNTVYLQMNSLKPEDTAVYYCATGTPSYHYCSMYGLEYDDWGQGTQVTVSS
0.1
15H1 VHH-Fc (Fc fusion) QVQLVESGGGLAQAGGSLRLSCASSGLIFSGSAMGWFRQAPGKEREFVGVISWNGRTTYADSVKGRFTISRDDAVNMVWLQMNNLKPEDTAVYYCAADHLNYGSGDVNPRTYDYWGQGTQVTVSS
0.11

Ask: Need binning response of 1E4 VHH-Fc (Fc fusion) QVLLVESGGGLVQAGGLLRLACSASGRTFTENVMGWFRQAPGKEREFVAAINWNTGSTYYSDSRKGRFTISKDNAKNTMFLQINNLKPEDTAVYYCGGTSSSYYYIGEFIPDYWGQGTQVTVSS , thanks.
Result: 0.11

Ask: I am curious: what binning response value has been reported for 8E9 VHH-Fc (Fc fusion) QVQLVESGGGLVEAGGSLRLSCVASGSSSSINAMGWYRQAPGKQRELVASISHDGETKYANSVKGRFTISRGNAKNTIYLQMNSLKPEDTAVYYCVGDVAWVVVAGEYDYWGQGTQVTVSS ?
Result: 0.13

Ask: Look up binning response for this binder: 19E10 VHH-Fc (Fc fusion) QVQLVESGGGLVQPGGSLRLSCVASGSTISINSMGWYRQAPGKAREMVATITNDGPIKYADPVKGRFTISRDNPKNTVYLQMNSLKPEDTAVYYCVADRAYWLAGEWEYWGQGTQVTVSS
Result: 0.12
